endpoint: K ass (M⁻¹)
Express it in M⁻¹; write the number only.

Recall the recorded K ass for Cn1c(=O)c2c(n(C)c1=O)n(C)c(=O)n2C with Nucleic Acid and state it. 552

Request - read-out K ass | tested on Nucleic Acid | compound Nc1nc2[nH]cnc2c(=O)[nH]1 0

Write down the reported K ass of c1nc2c[nH]cnc-2n1 , test system: Nucleic Acid. 2

Under Nucleic Acid: K ass value of Cc1ncnc2nc[nH]c12 ? 0

Record Cn1c(=O)c2[nH]c(=O)[nH]c2n(C)c1=O : what is its K ass with Nucleic Acid? 38.5

Test system Nucleic Acid; read-out K ass; what value for Cn1c(=O)c2[nH]cnc2n(C)c1=O ? 157

Notebook entry, Nucleic Acid assay: K ass of O=c1[nH]c(=O)c2nc[nH]c2[nH]1 = ? 0

Value wanted: K ass (Nucleic Acid) of entry Cn1c(O)nc2[nH]c(=O)[nH]c(=O)c21 0

For Nucleic Acid, provide K ass of Cn1c(=O)[nH]c(=O)c2[nH]cnc21 please. 10

Can you look up K ass on Nucleic Acid for Cn1c2c(c(=O)n(C)c1=O)NCN2.N/C=C/N ? 596

Record lookup: for Nucleic Acid, what K ass belongs to CN1CNc2[nH]c(=O)n(C)c(=O)c21 ? 155

Can you look up K ass on Nucleic Acid for Oc1nc(O)c2nc(O)[nH]c2n1 ? 0

What measured K ass is associated with Cn1c(=O)[nH]c2[nH]cnc2c1=O on Nucleic Acid? 79.2

Checklist item: K ass tested on Nucleic Acid, entry Clc1ncnc2[nH]cnc12 , value? 0

The measurements presented in this section are drawn from ChEMBL document CHEMBL1134323.
